- Target under test: T1, recombinant full-length human beta-catenin (human, UniProt P35222 2-781, biotinylated in the ELISA and SPR assays (sites not given); not biotinylated on the Western blots)
- T1 construct: Tags are not described; also called β-catenin; biotinylated beta-catenin
- T1 sequence: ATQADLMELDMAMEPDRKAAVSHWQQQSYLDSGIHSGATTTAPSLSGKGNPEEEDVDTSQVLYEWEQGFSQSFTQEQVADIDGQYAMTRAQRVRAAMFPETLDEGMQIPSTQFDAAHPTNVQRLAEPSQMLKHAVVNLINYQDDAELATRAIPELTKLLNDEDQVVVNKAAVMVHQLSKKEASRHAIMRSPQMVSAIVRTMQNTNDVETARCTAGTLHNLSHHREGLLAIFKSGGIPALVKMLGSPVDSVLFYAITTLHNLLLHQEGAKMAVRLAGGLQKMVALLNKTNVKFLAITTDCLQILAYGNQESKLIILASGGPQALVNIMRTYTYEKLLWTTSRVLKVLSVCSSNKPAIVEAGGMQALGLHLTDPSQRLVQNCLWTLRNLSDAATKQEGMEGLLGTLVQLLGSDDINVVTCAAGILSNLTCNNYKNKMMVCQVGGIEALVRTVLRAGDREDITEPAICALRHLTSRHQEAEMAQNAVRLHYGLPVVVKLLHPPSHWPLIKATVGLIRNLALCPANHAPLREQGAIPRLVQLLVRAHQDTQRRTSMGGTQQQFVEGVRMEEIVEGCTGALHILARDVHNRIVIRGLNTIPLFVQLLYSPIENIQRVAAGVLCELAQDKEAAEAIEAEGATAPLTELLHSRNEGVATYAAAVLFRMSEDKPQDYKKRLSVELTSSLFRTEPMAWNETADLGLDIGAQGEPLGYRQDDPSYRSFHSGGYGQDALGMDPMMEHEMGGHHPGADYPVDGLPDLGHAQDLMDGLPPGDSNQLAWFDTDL
- Method summary: SPR (Biacore T100), biotinylated beta-catenin captured on streptavidin, VHH-scFc in solution
The binders listed here are annotated with their pKd.
pKd is a log-scale quantity: -log10 of the concentration expressed in molar.

Some binders with recorded pKd:
binder="IBV1-scFc (Fc fusion, not shown: a dimerising Fc or GST; large carriers; small tags and cut ends, Single chain mouse IgG Fc construct, used as transient HEK293 supernatant; also called VH-V1; VHH-scFc of V1) VHH: QVQLVQSGGGLVQPGGSLRLSCAASGSISSNNVMGWYRQGPGKQREFVASITDSDLANYAASVKGRFTISRDNAKNTVNLQMNSLRPEDTDVYYCRLTMMTYPPTISWGQGTQVTVSS" measure_name=pKd experimental_value=8.19
binder="IBV2-scFc (Fc fusion, not shown: a dimerising Fc or GST; large carriers; small tags and cut ends, Single chain mouse IgG Fc construct, used as transient HEK293 supernatant; also called VH-V2) VHH: QVQLVQSGGGLVQPGGSLRLSCAASGSISSNNVMGWYRQGPGKQREFVASITDSDLANYAASVKGRFTISRDNAKNTVNLQMNSLRPEDTDVYYCRLTMMTYPPIISWGQGTQVTVSS" measure_name=pKd experimental_value=8.35
binder="IBV3-scFc (Fc fusion, not shown: a dimerising Fc or GST; large carriers; small tags and cut ends, Single chain mouse IgG Fc construct, used as transient HEK293 supernatant; also called VH-V3) VHH: QVQLVESGGGLVQPGGSLRLSCAASGTISSNNVMGWYRQGPGKQREFVASVTDSDLANYAASVKGRFTISRDNAKNTVNLQMNSLRPEDTGVYYCRLTIMTYPPTISWGQGTQVTVSS" measure_name=pKd experimental_value=8.36
binder="IBS-scFc (Fc fusion, not shown: a dimerising Fc or GST; large carriers; small tags and cut ends, Single chain mouse IgG Fc construct, used as transient HEK293 supernatant; also called VH-S) VHH: QVQLVESGGGLVQAGGSLRLSCAASGVSFSRTSLGWFRQAPGKEREFVSVISWIGGTTYYADSLKGRFTISRDNAKSTVYLQMNSLKPEDTALYYCAISNGVLPRTEGAFASWGQGTQVTVSS" measure_name=pKd experimental_value=8.42

# next binder below
Read the entry IBO-scFc (Fc fusion, not shown: a dimerising Fc or GST; large carriers; small tags and cut ends, Single chain mouse IgG Fc construct; It is placed under this molecule; also called VH-O; biotinylated-'O') VHH: QVQLVQSGGGLVQAGDSLRLACAASEGTFRTNVMGWFRQAPGKEREFVAAISWSGGITHYSNSVKGRFAISRDNAKNTVYLQMNSLKPEDTAVYYCAADPSTTPWNLRVRVNEYEYWGQGTQVTVSS and write its reported pKd. 8.44

Attribution: patent US20260167713A1
